measurementProtocol: Critical micelle concentration (CMC) and surface tension versus concentration in water, Wilhelmy plate method
Format: physicochemical
measurementParameters: 23° C., pH=7
Measured surface tension at the CMC (from the plot) values are reported for all entries that follow.
assayEndpoint: surface tension at the CMC (from the plot)

{"compound": "CCCCCCCCCCCCOC(=O)CCCCC[N+](C)(C)[O-] [Surfactant 2]", "valueReported": "≤ 30 mN/m"}
{"compound": "CCCCCCCCCCCCOC(=O)CCCCCN(C)C.Cl [Surfactant 3]", "valueReported": "≤ 30 mN/m"}

----------
measurementProtocol: Wetting properties: contact angle on solid substrates, optical contact angle goniometer
Format: physicochemical
measurementParameters: substrate Polyethylene terephthalate, 10x CMC
Source text: Surface-active compounds may also be assessed by their wetting ability on solid substrates as measured by the contact angle. […] Wetting properties are typically measured for a given compound at the concentration of 1-100×CMC, however, it is not a property that is concentration-dependent therefore measurements of wetting properties can be measured at concentrations that are higher or lower. […]
Measured CA of Surfactant (contact angle) values are reported for all entries that follow.
assayEndpoint: CA of Surfactant (contact angle) (°)

{"entrySmiles": "CCCCCCCCCCCCOC(=O)CCCCC[N+](C)(C)CCCCS(=O)(=O)[O-]", "assayEndpoint": "CA of Surfactant (contact angle)", "u": "°", "valueReported": 35.6}
{"entrySmiles": "CCCCCCCCCCCCOC(=O)CCCCCN(C)C.Cl", "assayEndpoint": "CA of Surfactant (contact angle)", "u": "°", "valueReported": 18.3}
{"entrySmiles": "CCCCCCCCCCCCOC(=O)CCCCC[N+](C)(C)C.[I-]", "assayEndpoint": "CA of Surfactant (contact angle)", "u": "°", "valueReported": 38.4}
{"entrySmiles": "CCCCCCCCCCCCOC(=O)CCCCCN.Cl", "assayEndpoint": "CA of Surfactant (contact angle)", "u": "°", "valueReported": 15.3}
{"entrySmiles": "CCCCCCCCCCCCOC(=O)CCCCC[N+](C)(C)[O-]", "assayEndpoint": "CA of Surfactant (contact angle)", "u": "°", "valueReported": 24.5}

----------
measurementProtocol: Wetting properties: contact angle on solid substrates, optical contact angle goniometer
Type: physicochemical
measurementParameters: substrate Teflon, 10x CMC

{"entrySmiles": "CCCCCCCCCCCCOC(=O)CCCCCN(C)C.Cl", "CA of Surfactant (contact angle) (°)": 66.6}
{"entrySmiles": "CCCCCCCCCCCCOC(=O)CCCCC[N+](C)(C)[O-]", "CA of Surfactant (contact angle) (°)": 57.4}
{"entrySmiles": "CCCCCCCCCCCCOC(=O)CCCCC[N+](C)(C)CCCCS(=O)(=O)[O-]", "CA of Surfactant (contact angle) (°)": 62.7}
{"entrySmiles": "CCCCCCCCCCCCOC(=O)CCCCCN.Cl", "CA of Surfactant (contact angle) (°)": 39.3}
{"entrySmiles": "CCCCCCCCCCCCOC(=O)CCCCC[N+](C)(C)C.[I-]", "CA of Surfactant (contact angle) (°)": 67.1}

The measured values listed here are drawn from patent US20210290765A1.
